result_type: melting point (°C)
The response must be a number in °C with no trailing unit.

### Prompt Please look at this molecule and report its melting point: O=C(Nc1ccc(Cl)c(Cl)c1)Nc1ccno1 [MSU-39452]
### Response 164

### Prompt Please look at this molecule and report its melting point: O=C(Nc1ccno1)NC1CCCC1 [MSU-41546, 1-cyclopentyl-3-(1,2-oxazol-5-yl)urea]
### Response 182

### Prompt Please look at this molecule and report its melting point: CC(C)(C)c1ccc(NC(=O)Nc2ccno2)cc1 [MSU-41442]
### Response 163

### Prompt Please look at this molecule and report its melting point: O=C(Nc1ccc(Cl)cc1)Nc1ccno1 [HC106F]
### Response 183

### Prompt Please look at this molecule and report its melting point: O=C(Nc1cccc(Br)c1)Nc1ccno1 [MSU-42003]
### Response 157

### Prompt Please look at this molecule and report its melting point: O=C(Nc1ccc(COc2ccccc2)cc1)Nc1ccno1 [MSU-41545]
### Response 164

### Prompt Please look at this molecule and report its melting point: O=C(Nc1ccc(-c2ccccc2)cc1)Nc1ccno1 [MSU-41443]
### Response 193
